Measured IC50 of individual entries
# MEASUREMENT_TARGET: UniProt Q6SZW1
# METHOD: FL-SARM1 cellular lysate assay (NAD/NADH-Glo detection of remaining NAD+, NMN-activated)
# CONDITION_DESCRIPTION: Activity (IC50 class), 11 point curve

{"MOLECULE": "Cc1ccc(NC(=O)N2CCCC2c2cnn(C)c2)cc1-c1ccccn1 (racemic) [Example 90]", "IC50": "> 10 µM"}
{"MOLECULE": "CC(C)c1ccc(NC(=O)[C@@H]2CC2(F)F)cc1-c1ccccn1 [Example 151]", "IC50": "1 to 10 µM"}
{"MOLECULE": "Cc1ccc(NC(=O)N2CCCC3CC32)cc1-c1ccccn1 (stereo not drawn) [Example 99]", "IC50": "> 10 µM"}
{"MOLECULE": "Cc1ccc(NC(=O)N2CCCC2c2nccn2C)cc1-c1ccccn1 (racemic) [Example 93]", "IC50": "> 10 µM"}
{"MOLECULE": "CC1CCCCCN1C(=O)Nc1ccc(C(F)(F)F)c(-c2ncc(F)cn2)c1 (racemic) [Example 312]", "IC50": "1 to 10 µM"}
{"MOLECULE": "Cc1ccc(NC(=O)N2C3CCCC2C3)cc1-c1ncccc1C#N [Example 33]", "IC50": "1 to 10 µM"}
{"MOLECULE": "O=C(Nc1ccc(C(F)(F)F)c(-c2ncc(F)cn2)c1)N1CCCC2CC2C1 (stereo not drawn) [Example 304]", "IC50": "1 to 10 µM"}
{"MOLECULE": "Cc1ccc(NC(=O)N2C[C@H]3C[C@@H]2CN3c2ccccc2)cc1-c1ccccn1 [Example 38]", "IC50": "1 to 10 µM"}
{"MOLECULE": "Cc1ccc(NC(=O)N2C3CC2c2ncnn2C3)cc1-c1ccccn1 (stereo not drawn) [Example 80]", "IC50": "> 10 µM"}

###

# MEASUREMENT_TARGET: full-length SARM1 (FL-SARM1) (Homo sapiens)
# Sequence (Q6SZW1 28-724): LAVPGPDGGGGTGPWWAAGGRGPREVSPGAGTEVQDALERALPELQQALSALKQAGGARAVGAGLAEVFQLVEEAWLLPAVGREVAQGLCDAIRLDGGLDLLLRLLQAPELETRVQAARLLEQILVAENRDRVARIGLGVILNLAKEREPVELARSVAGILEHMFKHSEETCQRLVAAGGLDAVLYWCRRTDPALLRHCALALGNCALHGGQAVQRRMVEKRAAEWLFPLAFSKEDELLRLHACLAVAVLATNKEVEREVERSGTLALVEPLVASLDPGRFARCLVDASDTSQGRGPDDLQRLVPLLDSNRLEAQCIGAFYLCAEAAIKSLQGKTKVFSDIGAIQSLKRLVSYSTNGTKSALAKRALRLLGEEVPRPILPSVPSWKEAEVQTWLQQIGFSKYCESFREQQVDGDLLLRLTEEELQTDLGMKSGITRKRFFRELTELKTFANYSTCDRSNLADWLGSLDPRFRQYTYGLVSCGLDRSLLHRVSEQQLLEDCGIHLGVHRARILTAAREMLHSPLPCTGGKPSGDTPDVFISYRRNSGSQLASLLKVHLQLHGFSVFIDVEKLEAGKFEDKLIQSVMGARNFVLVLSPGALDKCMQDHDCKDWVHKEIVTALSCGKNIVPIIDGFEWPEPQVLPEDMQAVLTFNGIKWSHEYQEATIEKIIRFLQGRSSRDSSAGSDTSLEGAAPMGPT
# METHOD: FL-SARM1 cellular lysate assay (NAD/NADH-Glo detection of remaining NAD+, NMN-activated)
# CONDITION_DESCRIPTION: Activity (μM) (IC50), 11 point curve
Quick reference: IC50 of the listed items.

{"MOLECULE": "O=C(Nc1ccc(C(F)(F)F)c(-c2ncc(F)cn2)c1)N1CCCCCC1 [Example 313]", "IC50, µM": 0.8}
{"MOLECULE": "Cc1ccc(NC(=O)N2C3CCC2c2ccccc23)cc1-c1ccccn1 [Example 8]", "IC50, µM": 0.06}
{"MOLECULE": "Cc1ccc(NC(=O)C2C3CCC2CC3)cc1-c1ccccn1 (centres unmarked) [Example 73]", "IC50, µM": 0.09}
{"MOLECULE": "CCc1ccc(-c2cc(NC(=O)N3C4C[C@@H](C)C[C@H]3C4)ccc2C)nn1 [Example 234]", "IC50, µM": 0.4}
{"MOLECULE": "COC(C)[C@@]12CC(C[C@@H](C)C1)N2C(=O)Nc1ccc(C)c(-c2ncc(F)cn2)c1 (some centres unmarked) [Example 190]", "IC50, µM": 0.2}
{"MOLECULE": "CCc1ccnc(-c2cc(NC(=O)N3C4C[C@@H](C)C[C@H]3C4)ccc2C)n1 [Example 237]", "IC50, µM": 1.1}
{"MOLECULE": "Cc1ccc(NC(=O)N2C3CCC2[C@H](C)C3)cc1-c1ncc(F)cn1 (single isomer, unassigned) [Example 198]", "IC50, µM": 0.3}
{"MOLECULE": "CC[C@H]1C[C@@H]1C(=O)Nc1ccc(C)c(-c2ccccn2)c1 (single isomer, unassigned) [Example 107]", "IC50, µM": 18}
{"MOLECULE": "Cc1ccc(NC(=O)C2C3CC(C3)N2c2ccccn2)cc1-c1ncc(F)cn1 (centres unmarked) [Example 271]", "IC50, µM": 17}
{"MOLECULE": "Cc1cc(F)c(NC(=O)N2C3CCCC2C3)cc1-c1nccnn1 [Example 246]", "IC50, µM": 2}
{"MOLECULE": "Cc1ccc(NC(=O)C2CCC3(CC3)CN2c2ccccn2)cc1-c1ncc(F)cn1 (racemic) [Example 314]", "IC50, µM": 1.2}
{"MOLECULE": "Cc1ccc(NC(=O)N2C3C[C@H](C)C[C@@H]2C3)cc1-c1cc(F)cnn1 [Example 220]", "IC50, µM": 0.1}
{"MOLECULE": "C[C@@H]1C[C@@H]2C[C@H](C1)N2C(=O)Nc1cc(-c2cccnn2)c(C(F)(F)F)cc1F [Example 245]", "IC50, µM": 0.2}
{"MOLECULE": "CCN1CC2CC(C1)N2C(=O)Nc1ccc(C)c(-c2ccccn2)c1 [Example 7]", "IC50, µM": 4}
{"MOLECULE": "Cc1ccc(NC(=O)N2C3C[C@H](C)C[C@@H]2C3)cc1-c1ncc(F)cn1 [Example 51]", "IC50, µM": 0.01}
{"MOLECULE": "Cc1c(Br)cc(NC(=O)N2C3CCCC2C3)cc1-c1ccccn1 [Example 78]", "IC50, µM": 0.7}
{"MOLECULE": "Cc1ccc(NC(=O)N2C3C[C@@H](C)C[C@H]2C3)cc1-c1cccnn1 [Example 62]", "IC50, µM": 0.02}
